# method: chemical genetic growth profiling, strain panel (AID 1159580);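 note: tested at 20 µM; growth read once vehicle control cultures reached saturation at 30 °C; 1 = growth at the plate median or of vehicle wells; lower values mean less growth of the strain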
# experimental_conditions: S. cerevisiae deletion strains, growth OD, locus YDR101C, strain arx1, stronger effect = lower value
Hit rate of the full screen: of about 5,500 compounds, about 2,000 (36%) were called active. Roughly 18% stayed inconclusive and do not appear here. This is one part of the list. Where a SMILES comes first, the peptide text is derived from it. The star is where a group is joined. For = O=C*
Property: normalized growth; scope: individual compounds
Answer with a number only.

As a guide, the following entries are already answered.
Cc1cc(O)cc(C)c1Cl
0.928
CSCCC(NC=O)C(=O)NC(Cc1ccccc1)C(=O)O (stereo not drawn) (For-Met-Phe-OH; configuration not given here)
0.998
COC1=C[C@@H]2[C@@H]3Cc4ccc(OC)c(O)c4[C@]2(CCN3C)CC1=O
1
Cc1cc(O)ccc1Cl
0.992

What the record says about Cc1cc(C(C)(C)C)c(O)c(C(C)(C)C)c1 : normalized growth is 0.977

What the record says about CC(=O)Nc1ccc(OCC(O)CNC(C)C)cc1 (configuration not stated) : normalized growth is 1.02

What the record says about NC(Cc1c[nH]c2ccccc12)C(=O)O (configuration not stated) : normalized growth is 0.996
